Hello, the source for this data is the supplement of paper PMC10724198, in case you need it.

system: Saccharomyces cerevisiae; assay: protein stability index of tFT-peptide fusion (C-terminal peptide) (PSI (0-1 scale)); higher = more stable (slower turnover); conditions: genetic background: das1 deletion; temperature: 30 C
MEASUREMENT_TYPE: protein stability index
Just the number, please, no unit after it.

The examples below pair each entry with its known result.
In [3]: df
Out[3]:
   sequence_string             target_system  measured
0     VFMTLHCITIYK  Saccharomyces cerevisiae     0.379
1     RRQQNHRQLCAT  Saccharomyces cerevisiae     0.642

Input: Enter reported protein stability index observed with Saccharomyces cerevisiae for PLFLLTFAITLV
Output: 0.166

Input: Repeat with VLVSVSLRVCMV
Output: 0.106

Input: Repeat with ALMTFTLVFTYM
Output: 0.181

Input: Repeat with VLCMSIFIVFGI
Output: 0.195

Input: Repeat with FSFSCFFFVLFV
Output: 0.0913

Input: Repeat with ESRRGILFIYIN
Output: 0.475

Input: Repeat with VFGSVAALRLLM
Output: 0.651

Input: Repeat with SVFVVVVLVFWY
Output: 0.22

Input: Repeat with ASCFFLFVLRVF
Output: 0.169

Input: Repeat with FFFSFSFPFLSF
Output: 0.464

Input: Repeat with RLCLLLCCRLWL
Output: 0.442

Input: Repeat with GTIFLIRVLLFG
Output: 0.222

Input: Repeat with VCRGWCVVRYIL
Output: 0.574

Input: Repeat with SYVFCYICGVQS
Output: 0.411

Input: Repeat with ARFCFRIFSFAS
Output: 0.288

Input: Repeat with LFVGLVSFRIGA
Output: 0.428

Input: Repeat with APPHPPPATFLS
Output: 0.685

====

system: Saccharomyces cerevisiae; assay: protein stability index of tFT-peptide fusion (C-terminal peptide) (PSI (0-1 scale)); higher = more stable (slower turnover); details: genetic background: wild type; temperature: 30 C
MEASUREMENT_TYPE: protein stability index

The examples below pair each entry with its known result.
In [3]: df
Out[3]:
                           sequence_string  measured
0    HGGTISLCRFGG [SWT21 C-terminal 12 aa]     0.658
1  YFVNNIIVRIQS [YKL118W C-terminal 12 aa]     0.329
2     QRERINNYISVY [VMA6 C-terminal 12 aa]     0.388
3    QVYYELGQIPFE [MET18 C-terminal 12 aa]      0.71
4    NKREFIDSLRPH [AIM20 C-terminal 12 aa]     0.677

Input: # lookup: protein stability index of VEAVKRVLTKKF [IMG2 C-terminal 12 aa]
Output: 0.694

Input: Repeat with FRCKFKERKVDG [REP1 C-terminal 12 aa]
Output: 0.674

Input: Repeat with GVEKYWGILSSD [SCW10 C-terminal 12 aa]
Output: 0.716

Input: Repeat with SVTFFIQDILCL [YPL073C C-terminal 12 aa]
Output: 0.407

Input: Repeat with SKKTTISAKKQQ [SGE1 C-terminal 12 aa]
Output: 0.511

Input: Repeat with KLRITSQENKTE [BCK1 C-terminal 12 aa]
Output: 0.766

Input: Repeat with NSIISLEALDAI [SMX2 C-terminal 12 aa]
Output: 0.708

====

system: Saccharomyces cerevisiae; assay: protein stability index of tFT-peptide fusion (C-terminal peptide) (PSI (0-1 scale)); higher = more stable (slower turnover); details: genetic background: wild type; temperature: 30 C
In this section we review reported protein stability index values for a set of sequences.
Just the number, please, no unit after it.

The examples below pair each entry with its known result.
>>> print(df.to_string())
   sequence_string  measured
0     DCLRQTVPEGAM     0.723
1     CSGLTLLRFFVW     0.654
2     ALLPPPRPLPHP     0.719

Input: # lookup: protein stability index of KSAPAIRASRPR
Output: 0.715

Input: Repeat with FVFIFIRVFFFR
Output: 0.269

Input: Repeat with GGGTLGQWCCDV
Output: 0.683

Input: Repeat with GYRMEGRVDSGG
Output: 0.65

Input: Repeat with AVSFGSTLANWA
Output: 0.718

Input: Repeat with PAPPHTLPVWAD
Output: 0.728

====

system: Saccharomyces cerevisiae; test: protein stability index of tFT-peptide fusion (C-terminal peptide) (PSI (0-1 scale)); higher = more stable (slower turnover); settings: genetic background: das1 deletion; temperature: 37 C
MEASUREMENT_TYPE: protein stability index
Just the number, please, no unit after it.

   sequence_string  measured
0     AAFLGVLCWCWG     0.486
1     VWFCCLFFCFFV      0.47
2     LGWFVDFVFVVW     0.458
3     WQVPYQRLAILF     0.681
4     GPVRSPPSPTPR     0.736
5     VPRSLYSVLRLA     0.714

Input: # lookup: protein stability index of LLVLRQYFFFFV
Output: 0.606

Input: Repeat with RGCFVLRKTHLL
Output: 0.732

Input: Repeat with RYKIEKKKLMNN
Output: 0.736

Input: Repeat with FMCFVLPVFVLV
Output: 0.389

Input: Repeat with FVSFFRWLLVSI
Output: 0.443

====

test system: Saccharomyces cerevisiae; experiment: protein stability index of tFT-peptide fusion (C-terminal peptide) (PSI (0-1 scale)); higher = more stable (slower turnover); settings: genetic background: wild type; temperature: 30 C
In this section we review reported protein stability index values for a set of sequences.

The examples below pair each entry with its known result.
>>> print(df.to_string())
   sequence_string  measured
0     FSGSSCSSPFCF     0.632
1     GFLCFRWACVRL     0.487
2     PLPSPPSPPPPP     0.693
3     SLENRFGGFYVG     0.749
4     IAVSWIRGGRIM     0.849

Next sequence, please.
Input: # lookup: protein stability index of VHWVVFSVPRQA
Output: 0.73

====

test system: Saccharomyces cerevisiae; assay: protein stability index of tFT-peptide fusion (C-terminal peptide) (PSI (0-1 scale)); higher = more stable (slower turnover); settings: genetic background: das1 deletion; temperature: 30 C
In this section we review reported protein stability index values for a set of sequences.
Just the number, please, no unit after it.

In [3]: df
Out[3]:
                            sequence_string  measured
0   RTTFRTLSSYGK [YHL041W C-terminal 12 aa]     0.713
1   CLSIIGFLKTKV [YOR015W C-terminal 12 aa]       0.7
2  FPKLALVCTIFS [YGR146C-A C-terminal 12 aa]     0.369

Input: # lookup: protein stability index of NLDGQIHYLQRL [GAL7 C-terminal 12 aa]
Output: 0.706

====

test system: Saccharomyces cerevisiae; test: protein stability index of tFT-peptide fusion (C-terminal peptide) (PSI (0-1 scale)); higher = more stable (slower turnover); settings: genetic background: wild type; temperature: 30 C
MEASUREMENT_TYPE: protein stability index
Just the number, please, no unit after it.

                        sequence_string  measured
0  NEEMIRKLKAAK [JID1 C-terminal 12 aa]     0.662

Input: # lookup: protein stability index of PAAKKVVELTQN [LSC2 C-terminal 12 aa]
Output: 0.58

Input: Repeat with RNNEHSHKKYNQ [YER090C-A C-terminal 12 aa]
Output: 0.729

====

tested on: Saccharomyces cerevisiae; test: protein stability index of tFT-peptide fusion (C-terminal peptide) (PSI (0-1 scale)); higher = more stable (slower turnover); settings: genetic background: wild type; temperature: 30 C
In this section we review reported protein stability index values for a set of sequences.
Just the number, please, no unit after it.

The examples below pair each entry with its known result.
>>> df
   sequence_string  measured
0     VRWALLGVVVEG     0.286
1     RQILYYRERFIP     0.196

Input: Enter reported protein stability index observed with Saccharomyces cerevisiae for EFEIALTLIRSI
Output: 0.361

Input: Repeat with SQVILFFLSLCR
Output: 0.498

Input: Repeat with FLGVFFYFLLCV
Output: 0.239

====

system: Saccharomyces cerevisiae; assay: protein stability index of tFT-peptide fusion (C-terminal peptide) (PSI (0-1 scale)); higher = more stable (slower turnover); conditions: genetic background: doa10 deletion; temperature: 30 C
// classify(record): look up protein stability index in ranges lower band = under 0.2, central band = from 0.2 up to 0.4, upper band = 0.4 and over

   sequence_string             target_system  assigned_category
0     ILAVMFEIYAIL  Saccharomyces cerevisiae         lower band
1     VYVVLGTVYVTY  Saccharomyces cerevisiae         lower band
2     LSTFFIFLRILR  Saccharomyces cerevisiae         upper band
3     WRCLHLVYLFFH  Saccharomyces cerevisiae         lower band
4     CLFSVLFPLFFR  Saccharomyces cerevisiae         upper band
5     GHSALWQVPRLM  Saccharomyces cerevisiae       central band

Input: // bin(item) where item = GVMICLDLLLSV
Output: central band

Input: Repeat with SRLVSRLGLYLS
Output: central band

Input: Repeat with CSLRGLFLVVSV
Output: central band
